# assayed-system: PPARg:RXRa (Homo sapiens, UniProt P37231;P19793 full;full)
# Sequence (P37231 29-505, chain 1 of 2): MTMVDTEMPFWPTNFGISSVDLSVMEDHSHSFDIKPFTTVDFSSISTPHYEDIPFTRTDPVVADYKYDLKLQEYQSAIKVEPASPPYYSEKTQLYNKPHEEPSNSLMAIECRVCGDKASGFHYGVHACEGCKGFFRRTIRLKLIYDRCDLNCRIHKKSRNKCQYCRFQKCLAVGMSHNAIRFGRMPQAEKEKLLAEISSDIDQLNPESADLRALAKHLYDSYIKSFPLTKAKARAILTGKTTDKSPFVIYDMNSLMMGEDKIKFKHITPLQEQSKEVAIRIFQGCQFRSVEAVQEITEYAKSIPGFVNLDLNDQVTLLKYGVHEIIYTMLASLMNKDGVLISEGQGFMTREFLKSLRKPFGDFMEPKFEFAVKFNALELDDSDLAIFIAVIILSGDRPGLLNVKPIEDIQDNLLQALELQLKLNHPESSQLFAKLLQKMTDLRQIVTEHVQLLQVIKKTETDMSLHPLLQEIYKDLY
# Sequence (P19793 whole entry, chain 2 of 2): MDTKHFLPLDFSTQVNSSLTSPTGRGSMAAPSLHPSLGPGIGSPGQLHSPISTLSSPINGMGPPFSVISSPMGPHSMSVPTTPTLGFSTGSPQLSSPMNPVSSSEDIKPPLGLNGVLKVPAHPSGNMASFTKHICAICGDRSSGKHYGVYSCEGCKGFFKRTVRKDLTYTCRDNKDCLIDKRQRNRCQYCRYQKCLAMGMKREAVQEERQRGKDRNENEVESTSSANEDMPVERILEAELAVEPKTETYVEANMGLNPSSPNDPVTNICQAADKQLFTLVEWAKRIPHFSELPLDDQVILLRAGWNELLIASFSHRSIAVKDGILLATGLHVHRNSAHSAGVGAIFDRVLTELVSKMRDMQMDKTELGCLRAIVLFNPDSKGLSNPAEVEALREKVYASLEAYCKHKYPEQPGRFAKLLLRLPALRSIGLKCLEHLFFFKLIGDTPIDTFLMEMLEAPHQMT
# experiment: no ligand; PBM; 180 nM : 90 nM RXRa; PBS pH 7.4, 2% milk, 0.02% Triton X-100, 1 mM DTT, BSA, 0.4 mg/ml salmon testes DNA
# details: tags: His kept;His cleaved; copies: 1;1; label: surface-attached array probe
readout-kind: binding signal

// query binding signal value for entry NRC3_wobSeed33_DR1_A13T_o1 (dsDNA) DNA 1: GCATCTCTAGGTTAAAGTTCAGTGAATCCCGAGGATGCGATTGACAGCGTAGAATGAAGG DNA 2: CCTTCATTCTACGCTGTCAATCGCATCCTCGGGATTCACTGAACTTTAACCTAGAGATGC 10 PBM z-score against 500 random probes
